Test system: Hedgehog Signaling Pathway
ASSAY_COMMENT: SHH-induced differentiation of C3H10T1/2 cells into osteoblastic cells, intracellular alkaline phosphatase activity
Type: cell-based, mouse
CONDITION: Mus musculus, C3H 10T1/2, 120 h, 10 nM SHH-N, 5 days, alkaline phosphatase activity (OD405), read-out: IC50 values of compounds that inhibit Hh pathway
MEASUREMENT_TYPE: IC50 (nM)
Record the value in nM, omitting the unit from your answer.

1. C[C@H]1CN(c2ccc(C(=O)Nc3ccc(Cl)c(-c4nc5ccccc5[nH]4)c3)c(Cl)c2)CCN1C [Example 126]	25

Pending compound:
[in] Identify measured IC50 associated with Cc1c(C(=O)Nc2ccc(Cl)c(-c3ncc(C4CC4)[nH]3)c2)ccc(N2C[C@@H](C)N(C)[C@@H](C)C2)c1F [Example 179]
[out] 0.39

Origin of the recorded values: patent US10676468B2
